meta.source: patent US9232799B2

System: Fusarium graminearum
assay_explanation: microbe, parasite or virus in culture
Type: cell-based
measurement_parameters: 50 μM
property: % Inhibition of fungal growth at 50 μM (%)
Please state the figure in %; there is no need to write the unit.

| compound | % Inhibition of fungal growth at 50 μM [%] |
| --- | --- |
| Cc1scc(CCNC(=O)c2c(C(F)F)nn(C)c2F)c1C [Example 167] | 100 |
| CN(CCc1ccc(F)cc1)C(=O)c1c(C(F)F)nn(C)c1Cl [Example 24] | 88 |
| COC(CNC(=O)c1c(C(F)F)nn(C)c1F)c1ccc(Cl)cc1Cl (centres unmarked) [Example 75] | 100 |
| Cn1nc(C(F)F)c(C(=O)NC[Si](C)(C)c2cc(Cl)cc(Cl)c2)c1Cl [Example 243] | 84 |

Kindly consider the entry below.
-- ask Item Cn1nc(C(F)F)c(C(=O)NCCc2csc3c2CCCC3)c1F [Example 170] : provide % Inhibition of fungal growth at 50 μM
-- reply 95

---

Recorded measurements of % Inhibition of Aflatoxin at 50 μM, one per entry
System: aflatoxines production
assay_explanation: microbe, parasite or virus in culture
Assay type: cell-based, Aspergillus parasiticus
measurement_parameters: 50 μM
Output spec: scalar in %, unitless text.

Please review the following examples before continuing.
| compound | % Inhibition of Aflatoxin at 50 μM / % |
| --- | --- |
| Cn1nc(C(F)F)c(C(=O)NCCc2ccsc2Br)c1F [Example 166] | 100 |
| CC(Cc1c(F)cccc1Cl)N(C(=O)c1c(C(F)F)nn(C)c1F)C1CC1 (centres unmarked) [Example 120] | 100 |
| CC(CNC(=O)c1c(C(F)F)nn(C)c1Cl)c1cccc(C(F)(F)F)c1 (centres unmarked) [Example 125] | 99 |
| COCCN(CCc1ccncc1)C(=O)c1c(C(F)F)nn(C)c1Cl [Example 202] | 99 |
| Cn1nc(C(F)F)c(C(=O)N(CCc2ccccc2)C2CC2)c1Cl [Example 12] | 100 |

-- ask Provide measured % Inhibition of Aflatoxin at 50 μM value, entry: Cn1nc(C(F)F)c(C(=O)NC2CC2c2ccc(F)cc2)c1F (centres unmarked) [Example 220]
-- reply 100

-- ask Dear colleague, please send me the reported % Inhibition of Aflatoxin at 50 μM for Cn1nc(C(F)F)c(C(=O)NCC(c2cccs2)C(F)(F)F)c1Cl (centres unmarked) [Example 162] when you can.
-- reply 98

-- ask Respond only with % Inhibition of Aflatoxin at 50 μM recorded for CN(CCc1ccccc1Cl)C(=O)c1c(C(F)F)nn(C)c1F [Example 35]
-- reply 100

-- ask Identify measured % Inhibition of Aflatoxin at 50 μM associated with CC(Cc1cc(Cl)ccc1Cl)NC(=O)c1c(C(F)F)nn(C)c1Cl (centres unmarked) [Example 93]
-- reply 100

-- ask Return value of % Inhibition of Aflatoxin at 50 μM for input CC(C)C(CNC(=O)c1c(C(F)F)nn(C)c1Cl)c1ccc(Cl)cc1 (centres unmarked) [Example 59] , no commentary.
-- reply 100

---

Measured logP values are reported for all entries that follow.
assay_explanation: logP by HPLC on reversed-phase column (C 18), EEC Directive 79/831 Annex V.A8
Assay type: physicochemical
Experimental: In table 1, the logP values were determined in accordance with EEC Directive 79/831 Annex V.A8 by HPLC (High Performance Liquid Chromatography) on a reversed-phase column (C 18), using the method described below: Temperature: 40° C.; […]
Keep it simple and answer with nothing but the number.

| molecule | logP |
| --- | --- |
| Cn1nc(C(F)F)c(C(=O)NCCc2ncc(C(F)(F)F)cc2Cl)c1Cl | 2.97 |
| Cn1nc(C(F)F)c(C(=O)NC[Si](C)(C)c2ccccc2)c1Cl | 3.31 |
| CC(CNC(=O)c1c(C(F)F)nn(C)c1F)c1cccc(Cl)c1 (stereo not drawn) | 3.02 |
| CC(Cc1cccc(Cl)c1)NC(=O)c1c(C(F)F)nn(C)c1Cl (stereo not drawn) | 3.17 |
| CC(Cc1c(F)cccc1Cl)N(C(=O)c1c(C(F)F)nn(C)c1F)C1CC1 (stereo not drawn) | 3.76 |

-- ask Look up and state reported logP for `Cn1nc(C(F)F)c(C(=O)N(CCc2ccccc2)C2CCCC2)c1F`
-- reply 3.69

-- ask Identify measured logP associated with `CN(CCc1cc(Cl)ccc1Cl)C(=O)c1c(C(F)F)nn(C)c1Cl`
-- reply 3.33

-- ask Hello, please tell me recorded logP for this one: `Cn1nc(C(F)F)c(C(=O)NCC(C)(C)c2ccccc2Cl)c1F`
-- reply 3.27

-- ask Please list logP recorded for the molecule `CN(CCc1ccccn1)C(=O)c1c(C(F)F)nn(C)c1Cl`
-- reply 1.63

-- ask Tell me its logP given CC(c1ccccc1Cl)C(C)N(C(=O)c1c(C(F)F)nn(C)c1F)C1CC1 (stereo not drawn) as the entry.
-- reply 3.87

-- ask Please list logP recorded for the molecule `CC(C)N(CCc1ccccn1)C(=O)c1c(C(F)F)nn(C)c1Cl`
-- reply 1.00

-- ask Fill in reported logP for this entry: `Cn1nc(C(F)F)c(C(=O)NCCc2ccsc2Br)c1F`
-- reply 2.64
